System: Plasmodium falciparum
Experiment: GSK_TCMDC: Inhibition of Plasmodium falciparum 3D7 in whole red blood cells, using parasite LDH activity as an index of growth. Test compounds present at 2uM
Type: functional
Could you please report measured Inhibition for the items listed next?
// note: answer is a bare numeric in %

## Input Can you look up Inhibition on Plasmodium falciparum for `Cc1ccc(/C=C/C(=O)NCCCCCN2CCC(c3c[nH]c4ccccc34)CC2)cc1` ?
## Output 86

## Input Can you look up Inhibition on Plasmodium falciparum for `CC(=O)Nc1ccc(OCCN(CC(C)C)c2ccc(C(F)(F)F)c(C#N)c2)c(Cl)c1` ?
## Output 96

## Input Can you look up Inhibition on Plasmodium falciparum for `Nc1ncc(-c2ccc3[nH]ccc3c2)c2ccc(-c3ccncc3)cc12` ?
## Output 100

## Input Can you look up Inhibition on Plasmodium falciparum for `CCN1CCC(N(Cc2ccc(-c3ccc(C(F)(F)F)cc3)o2)C(=O)Cn2c(CCc3cccc(F)c3F)nc(=O)c3ccccc32)CC1.O=C(O)C(O)C(O)C(=O)O` ?
## Output 91

====

Could you please report measured Inhibition for the items listed next?
Test system: Plasmodium falciparum
Assay: GSK_TCMDC: Inhibition of Plasmodium falciparum Dd2 in whole red blood cells, using parasite LDH activity as an index of growth. Test compounds present at 2uM
Assay type: functional
// note: answer is a bare numeric in %

## Input Recorded Inhibition of `COc1ccccc1CCNC(=O)c1cnc(N2CCN(c3ccncc3)CC2)c(Cl)c1.O=C(O)C(F)(F)F` , please.
## Output 54

## Input Recorded Inhibition of `Cc1cc(N2CCNCC2)c2cc(NC(=O)Nc3ccc(Cl)c(Cl)c3)ccc2n1.Cl` , please.
## Output 86

## Input Recorded Inhibition of `CC(C)(C)c1ccc2oc(=O)n(C3CCN(C(=O)c4ccc([N+](=O)[O-])o4)CC3)c2c1` , please.
## Output 87

## Input Recorded Inhibition of CN(C)Cc1ccc(-c2cccc(Nc3nccc(NCC(O)c4ccccc4)n3)c2)cc1 (centres undefined) , please.
## Output 100

## Input Recorded Inhibition of Cc1nccn1CCNC(=O)CN1CCC2(CCC1=O)CC(=O)c1ccccc1O2 (centres undefined) , please.
## Output 4

## Input Recorded Inhibition of `CN1CCN(CCCN(Cc2ccc(-c3cccc(CNCc4ccc5c(c4)OCO5)c3)cc2)C(=O)NC2CCCCC2)CC1.O=C(O)C(F)(F)F` , please.
## Output 92

## Input Recorded Inhibition of `O=C(Nc1ccc(C(F)(F)F)cc1)NC1CCN(c2ccnc3cc(Cl)ccc23)CC1.O=C(O)C(F)(F)F` , please.
## Output 74

## Input Recorded Inhibition of `COc1ccc(Cl)cc1N1CCN(CCCNC(=O)c2ccc(-c3nc4cc(Cl)c(Cl)cc4[nH]3)c(C)c2)CC1` , please.
## Output 0

## Input Recorded Inhibition of `CCOc1ccc2[nH]c(C)cc(=NN=Cc3ccccc3Cl)c2c1` , please.
## Output 100

====

Tested on: Plasmodium falciparum
Test: GSK_TCMDC: Inhibition of Plasmodium falciparum 3D7 in whole red blood cells, using parasite LDH activity as an index of growth. Test compounds present at 2uM
Format: functional
Quantity: Inhibition (%)
// note: answer is a bare numeric in %

## Input Recorded Inhibition of `COc1ccc(-c2csc(N(CCCN(C)C)C(=O)c3cc4c(C)nn(-c5ccccc5)c4s3)n2)cc1.Cl` , please.
## Output 100

## Input Recorded Inhibition of `Cc1cnc(CN(Cc2ccc(-c3ccc(CNCCc4ccc(S(C)(=O)=O)cc4)cn3)cc2)C(=O)c2ccc([N+](=O)[O-])c(C)c2)cn1.O=C(O)C(F)(F)F` , please.
## Output 93

## Input Recorded Inhibition of `CN(CCCc1c[nH]c2ccccc12)CC1CCN(C(=O)/C=C/c2ccc(Cl)c(Cl)c2)CC1` , please.
## Output 99

## Input Recorded Inhibition of `CCCCCN1CCCN(Cc2cccc(NC(=O)c3ccc(Cl)c(Cl)c3)c2)CC1.O=C(O)C(F)(F)F` , please.
## Output 89

## Input Recorded Inhibition of `CC(C)(C)c1ccc(NC(=O)c2ccc(CN3CCCN(Cc4cccc(Cl)c4)CC3)cc2)cc1.O=C(O)C(F)(F)F` , please.
## Output 96

## Input Recorded Inhibition of `CC(=O)Nc1cccc(C(=O)Nc2ccc(-c3cccc(-c4nc5cccc(C)c5[nH]4)c3)cc2)c1` , please.
## Output 100

## Input Recorded Inhibition of `Cc1ccc(C(=O)Nc2ccc(Nc3ccnc4cc(-c5ccncc5)ccc34)cc2O)cc1` , please.
## Output 97

## Input Recorded Inhibition of O=C(Nc1ccnc(N2CC3CC2CN3Cc2cccc(O)c2)c1)c1ccc(F)cc1.O=C(O)C(F)(F)F (stereo not drawn) , please.
## Output 92

====

Could you please report measured Inhibition for the items listed next?
Tested on: HepG2
Experiment: GSK_TCMDC: Percent inhibition of human HepG2 cell line. Test compounds present at 10uM.
Assay type: functional
// note: answer is a bare numeric in %

## Input Recorded Inhibition of O=C(Cc1cccc(O)c1)NCC(Cc1ccc(O)cc1)c1ccccc1 (stereo not drawn) , please.
## Output 0

## Input Recorded Inhibition of `CCn1c(Sc2ccc(C#N)c([N+](=O)[O-])c2)nnc1-c1cc(OC)cc(OC)c1` , please.
## Output 7

## Input Recorded Inhibition of O=C1Nc2cccc3c2C1(CCCCN1CCC(c2c[nH]c4cc(C(F)(F)F)ccc24)CC1)CCC3 (stereo not drawn) , please.
## Output 99

## Input Recorded Inhibition of `Br.NC1=NC2(CCCCC2)N(OCCCCCCC2CCCCC2)C(N)=N1` , please.
## Output 77

## Input Recorded Inhibition of `CO/C(=C\C=C\c1cc2cc(Cl)c(Cl)cc2[nH]1)C(=O)NCCCN1CCN(c2cccc(CCCO)c2)CC1` , please.
## Output 66

## Input Recorded Inhibition of `O=C(Nc1cccc(CN2CCCN(Cc3cccc(O)c3)CC2)c1)c1ccc2ccccc2c1.O=C(O)C(F)(F)F` , please.
## Output 21

## Input Recorded Inhibition of `Cc1c(F)cc(C(=O)NC2CC2)cc1-c1ccc2c(cnn2S(=O)(=O)c2ccc(C#N)cc2)c1` , please.
## Output 17

## Input Recorded Inhibition of `CS(=O)(=O)c1ccc(CNCc2cccc(-c3cccc(-c4nc5cc(F)ccc5[nH]4)c3)c2)cc1.O=C(O)C(F)(F)F` , please.
## Output 11

## Input Recorded Inhibition of `COc1cccc(Nc2nc(C)cc(NCc3ccc(-n4ccnc4)cc3)n2)c1` , please.
## Output 0

## Input Recorded Inhibition of `CC(C)CNCc1ccc(-c2ccc(CN(CCCN3CCN(C)CC3)C(=O)/C=C/c3ccccc3)cc2)cc1.O=C(O)C(F)(F)F` , please.
## Output 57

## Input Recorded Inhibition of `COc1ccc(NC(=O)c2ccc(Br)c(C)c2)cc1N1CCN(CCCc2c[nH]c3ccccc23)CC1` , please.
## Output 21

## Input Recorded Inhibition of `CCOc1ccc(-c2nonc2NC(=O)c2cccc(Cl)c2)cc1OCC` , please.
## Output 0

## Input Recorded Inhibition of `CC(=O)Nc1nc(C(=O)Nc2cccc(-c3cccc(-c4nc5ccccc5[nH]4)c3)c2)cs1` , please.
## Output 31

## Input Recorded Inhibition of `O=C(O)C(F)(F)F.c1ccc2[nH]c(-c3ccc(-c4ccc(CN5CCN(CCN6CCOCC6)CC5)cc4)cc3)nc2c1` , please.
## Output 43

## Input Recorded Inhibition of `Nc1cccc(CNCc2cccc(-c3ccc(-c4nc5cc(C(F)(F)F)ccc5[nH]4)cc3)c2)c1.O=C(O)C(F)(F)F` , please.
## Output 6

## Input Recorded Inhibition of `CCCCCN1CCC(NS(=O)(=O)c2cccc(C(=O)Nc3ccc(Cl)cc3)c2)CC1.O=C(O)C(F)(F)F` , please.
## Output 24

## Input Recorded Inhibition of O=c1cc(NCCC2CC=CCN2Cc2ccc(Cl)c(Cl)c2)[nH]c2ccccc12 (stereo not drawn) , please.
## Output 7

## Input Recorded Inhibition of `Cc1cc(NCCC(=O)NCc2cccc(F)c2)nc(Nc2ccccc2)n1.O=C(O)C(F)(F)F` , please.
## Output 0

====

Tested on: HepG2
Experiment: GSK_TCMDC: Percent inhibition of human HepG2 cell line. Test compounds present at 10uM.
Format: functional
Could you please report measured Inhibition for the items listed next?
// note: answer is a bare numeric in %

## Input Recorded Inhibition of `CN(C)CCOc1cc(NC(=O)Nc2ccc(-c3ccccc3)cc2)ccc1I` , please.
## Output 9

## Input Recorded Inhibition of `Cc1cnccc1/C=C/c1cccc(OCCN2CCc3ccc(S(C)(=O)=O)cc3CC2)c1` , please.
## Output 9

## Input Recorded Inhibition of `O=C(Nc1nc2ccc(Cl)cc2s1)c1csnn1` , please.
## Output 15

## Input Recorded Inhibition of `Cc1cc(-c2cccc3c(C(=O)N4CCc5cc6nccc(N7CCCN(C)CC7)c6cc54)cccc23)cc(C)n1.Cl` , please.
## Output 17

## Input Recorded Inhibition of `COc1ccc(-n2ccnc2SCC(=O)Nc2cc(C(F)(F)F)ccc2Cl)c(OC)c1` , please.
## Output 0

## Input Recorded Inhibition of `Cl.NC(=O)c1cccc(Nc2nccc(Nc3ccc(Oc4c(Cl)cccc4Cl)c(Cl)c3)n2)c1` , please.
## Output 2

## Input Recorded Inhibition of `O=C(Nc1ccc(N2CCCCC2)c(Cl)c1)c1ccco1` , please.
## Output 0

## Input Recorded Inhibition of `O=C(Cc1cccc(OCCCN(Cc2cccc(C(F)(F)F)c2Cl)CC(c2ccccc2)c2ccccc2)c1)NCc1ccco1` , please.
## Output 2

## Input Recorded Inhibition of `Cc1noc(C)c1-c1cccc(CNCc2cccc(-c3cccc(-c4nc5cccc(C)c5[nH]4)c3)c2)c1.O=C(O)C(F)(F)F` , please.
## Output 15

## Input Recorded Inhibition of O=C(Cc1ccccc1)NC(CCN1CCC(N(C2CC2)S(=O)(=O)c2cccc(C(F)(F)F)c2)CC1)c1ccc(Cl)c(Cl)c1 (stereo not drawn) , please.
## Output 19

## Input Recorded Inhibition of `C=C[C@]1(C)C[C@@H](OC(=O)NC(=O)C2CCN(C(=O)CSc3ccccc3)CC2)[C@]2(C)[C@H](C)CC[C@]3(CCC(=O)[C@H]32)[C@@H](C)[C@@H]1O` , please.
## Output 0

## Input Recorded Inhibition of Oc1ccccc1CN1CCC2(CCCN(Cc3ccccc3F)C2)C1 (stereo not drawn) , please.
## Output 13

## Input Recorded Inhibition of `CC(C)COc1ccc(Cl)cc1Cc1ccc(-c2nc3ccc(C(F)(F)F)cc3[nH]2)o1` , please.
## Output 14

## Input Recorded Inhibition of `Br.CC1(C)NC(N)=NC(=N)N1OCC1CCCCC1` , please.
## Output 67

## Input Recorded Inhibition of `C#CCOc1ccc2ccccc2c1CNCCCCCCNCc1c(OCC#C)ccc2ccccc12.CS(=O)(=O)O` , please.
## Output 100

## Input Recorded Inhibition of COc1ccc(C(=O)CCC(=O)N(Cc2ccc(-c3ccc(CNCCc4ccc(S(C)(=O)=O)cc4)cn3)cc2)C(C)CN(C)C)cc1F.O=C(O)C(F)(F)F (stereo not drawn) , please.
## Output 13

## Input Recorded Inhibition of `COc1ccc(-c2ccc(NC(=O)c3cccc(Cl)c3)cc2)cc1CN1CCCC1.O=C(O)C(F)(F)F` , please.
## Output 35

## Input Recorded Inhibition of COc1ccc2ncc(F)c(CCN3CC(O)C(CNCc4ccc5c(c4)OCCO5)C3)c2n1.Cl (stereo not drawn) , please.
## Output 18
